Test system: CCRF-CEM leukemia
Assay: NCI tumour cell line growth inhibition, 48 h
READOUT KIND: TGI (µM)
Answers are plain numbers, in µM.

> print(dat)
                        line.notation  measured.result
1  O=C1/C(=C/c2cccc(Br)c2)CCc2ccccc21             13.4

Documented TGI of C#Cc1c(F)ccc2cc(O)cc(-c3ncc4c(N5CC6CCC(C5)N6)nc(OC[C@@]56CCCN5C[C@H](F)C6)nc4c3F)c12 : 29.1

###

Tested on: UO-31 renal
Experiment: NCI tumour cell line growth inhibition, 48 h
READOUT KIND: TGI

Completed entries (count: 3):
> print(dat)
                                   compound  readout.kind  measured.result
1  CC(C)(C)n1cc(-c2ccnc(NCCCNS(=O)(=O)c3ccc(C(F)(F)F)cc3)c2)c(-c2cccc(O)c2)n1           TGI          3.06 µM
2  CCCCCCCCCCCCCCCCCCNc1ccn(C2OC(COP(=O)(O)OCC3OC(n4cc(F)c(=O)[nH]c4=O)CC3O)C(O)C2O)c(=O)n1 (centres undefined)           TGI         > 100 µM
3  C[C@]12C=CC(=O)C=C1CC[C@@H]1[C@@H]2CC[C@]2(C)OC(=O)CC[C@@H]12           TGI         > 500 µM

Shift focus to the following entry.
Entry N#Cc1c(N)nc(-c2ccc(Cl)cc2)c2c1-c1ccccc1S(=O)(=O)CC2 — recorded TGI = > 100 µM

###

Assign TGI to each entry below.
System: DU-145 prostate
Assay: NCI tumour cell line growth inhibition, 48 h
Numbers only, in µM.

Record excerpt, results attached:
MOLECULE	TGI [µM]
FC(F)(F)c1ccc(Nc2nc(-c3c(C(F)(F)F)nc4ccccn34)cs2)cc1	2.15
Fc1ccc2c(c1)C1=NN(c3ccccc3)C(F)C1CO2 (stereo not drawn)	21.8

Quick batch: TGI for everything below.
1. O=C1/C(=C/c2cccc(F)c2)CCCc2ccccc21
2. C=CCNC1=C2C[C@@H](C)C[C@@H](OC)[C@H](OC(=O)CCN)[C@H](C)/C=C(\C)[C@@H](OC(N)=O)[C@H](OC)/C=C\C=C(/C)C(=O)NC(=CC1=O)C2=O
3. c1ccc2[nH]c(-c3ccc(-c4nccc5c4[nH]c4ccccc45)cc3)nc2c1
4. COCCOC(=O)c1c(C)n([O-])c2cc(Cl)c(Cl)cc2[n+]1=O
5. O=C(ON=C1c2ccccc2C(Br)C(Br)c2ccccc21)c1cc([N+](=O)[O-])cc([N+](=O)[O-])c1 (stereo not drawn)
6. O=C1/C(=C/c2cccc(Br)c2)CCc2ccccc21

Reply:
30.6
16
16.2
25.8
66
30.9

###

Give TGI for every item shown.
System: SK-MEL-28 melanoma
Assay: NCI tumour cell line growth inhibition, 48 h

Take a look at these entries with their results.
> print(dat)
                                   compound  readout.kind  measured.result
1  COC(=O)C1(C)CCC(c2ccc(C)cc2)=C(CC(=O)O)C1 (configuration not stated)           TGI         > 100 µM
2  COc1cc(O)c2c(=O)cc(-c3ccc(O)cc3O)oc2c1CC=C(C)C           TGI         > 100 µM
3  C=C(C)C(=O)O[C@H]1CC(=C)[C@@H]2C[C@H](O)[C@](O)(CCl)[C@@H]2[C@H]2OC(=O)C(=C)[C@@H]21           TGI           3.9 µM
4  COc1ccc(C2=CC(c3ccc4c(c3)OCO4)c3c(c4ccccc4oc3=O)O2)cc1OC (configuration not stated)           TGI         > 100 µM
5  NC1=C(NC(=O)Cc2ccc(F)cc2)C(=O)c2ccccc2C1=O           TGI         > 100 µM

Batch of 6 compounds: report TGI for each.
1. CC/C=C1/C(=O)C=C[C@@H]1C/C=C\CCCC(=O)OC
2. CCS(CC)(CC)CC1CCCC2=CCC(P(=O)(c3ccccc3)c3ccccc3)CC21 (configuration not stated)
3. CN1C(=Nc2ccccc2)SC1=Nc1ccccc1
4. O=C1CCCCC/C1=C\c1cccc(Cl)c1
5. Nc1ncnc2c1ncn2C=C=CCO
6. COC(=O)C1(C(=O)OC)Cc2ccc(OC)cc2C2=C1C(=O)c1ccccc1C2=O

Reply:
1: 6.27 µM; 2: 28.4 µM; 3: > 100 µM; 4: > 100 µM; 5: > 100 µM; 6: 31.4 µM

List the reported TGI of each compound below.
1. CCOC(=O)c1cccn1S(=O)(=O)c1cc(Cl)ccc1NC(=O)CC
2. O=C1CCC2C(O)c3cc4c(cc3C(c3ccc5c(c3)OCO5)N12)OCO4 (configuration not stated)
3. COc1cc2c(cc1C)NC(=O)/C2=C/c1ccccn1
4. O=C(CN1CCCCC1)Nc1ccc2sc3ccccc3c(=O)c2n1
5. O=c1[nH]c2cc(Cl)ccc2nc1/C(=N\O)C(O)c1cccc([N+](=O)[O-])c1 (configuration not stated)
6. NC(N)=N/N=C/c1c(-c2ccc(Cl)cc2)nc2sccn12
7. COc1cc(NC(C)CCCNC2CN3CCC2CC3)c2ncccc2c1 (configuration not stated)
8. COc1ccc2[nH]cc(CCNC(=O)[C@H](Cc3ccccc3)NC(=O)[C@@H](NCC(F)(F)F)C(C)C)c2c1

Reply:
> 100 µM
> 100 µM
> 100 µM
35.2 µM
> 100 µM
3.44 µM
23.7 µM
31.8 µM

Okay, here is my list. What is TGI for each of these?
1. COc1ccc(CN2c3ccccc3Sc3ccccc32)c(F)c1
2. CCOC(=O)/C(C#N)=C\c1ccc(N(CCC(=O)O)CCC(=O)O)c(I)c1
3. N#Cc1c(N)nc(-c2ccc(Cl)cc2)c2c1-c1ccccc1S(=O)(=O)CC2

Reply:
1: > 100 µM; 2: > 10 µM; 3: > 100 µM

###

System: SK-MEL-28 melanoma
Experiment: NCI tumour cell line growth inhibition, 48 h; in the data active = GI50 below about 0.43 µM; inactive = the rest
Parameter call: string, one of T = active, F = inactive

COMPOUND	CLASSIFICATION
CC(C)(C)OC(=O)N1CCN(CCn2cc(C(F)(F)F)c3c(Cl)ncnc32)CC1	F
O=C1Nc2ccccc2/C1=C/C(=O)c1coc2c1C(=O)c1ccccc1C2=O	F
COc1c(C)c2c(c(O)c1C/C=C(\C)CCC(=O)O)C(=O)OC2	T

Ask: // param item: COc1cc(/C=C/C(=O)c2cccc(Nc3nc(Nc4ccccc4)nc(Nc4ccccc4)n3)c2)cc(OC)c1OC ; yields the recorded call
Reply: F

Ask: I would be grateful if you could indicate the recorded call for C=C1C(=O)O[C@H]2[C@H]1CC/C(COC(=O)NCc1cn(C)c3ccccc13)=C\CC[C@@]1(C)O[C@@H]21 .
Reply: F

Ask: Please let me know the test result on file for Cc1nn2c(/C=C3\C(=O)Nc4ccc(Cl)cc43)c(C)nc2s1 .
Reply: F

Ask: Any idea what this test logged for C=C1CCC2C3(C)COC(c4ccc(N(C)C)cc4)OC3CCC2(C)C1C/C=C1/C(=O)OCC1O (stereo unspecified) ?
Reply: F

###

Task for the reader: assign each of the following molecules its reported TGI.
Tested on: MDA-MB-435
Assay: NCI tumour cell line growth inhibition, 48 h
One number for each entry, in µM.

Some entries whose results are on file:
> print(dat)
                              line.notation  test.system  measured.result
1  COC1=C(OC)C(=O)C(Cc2c(Cl)nc3sc(C)cn23)=C(C)C1=O   MDA-MB-435             35.3
2   CC/C=C1/C(=O)C=C[C@@H]1C/C=C\CCCC(=O)OC   MDA-MB-435              4.6
3  CC(C)(C)OC(=O)N1CCN(CCn2cc(C(F)(F)F)c3c(Cl)ncnc32)CC1   MDA-MB-435             3.65
4  COC(=O)c1nc(-c2ccccc2)oc1S(=O)(=O)Cc1ccccc1   MDA-MB-435             23.6

// switching to the query molecule
The value of TGI recorded for Nc1c(C(=O)c2cccc(-c3ccncc3)c2)cnn1-c1ccc(F)cc1F when tested on MDA-MB-435 reads 3.56

###

Test system: SF-268 CNS
Test: NCI tumour cell line growth inhibition, 48 h; in the data active = GI50 below about 0.43 µM; inactive = the rest
Returns: one label drawn from true (1) (active), false (0) (inactive)

> print(dat)
                              line.notation  test.system  classification
1  CC(C)(C)OC(=O)N1CCN(CCn2cc(C(F)(F)F)c3c(Cl)ncnc32)CC1   SF-268 CNS       false (0)
2  COc1cc([N+](=O)[O-])c(OC)cc1-c1nc2sc(Cl)cn2c1/C(N)=N/C(=N)N   SF-268 CNS       false (0)
3  c1ccc2[nH]c(-c3ccc(-c4nccc5c4[nH]c4ccccc45)cc3)nc2c1   SF-268 CNS       false (0)
4  CN(CCCn1c2c(c3ccccc3c1=O)C(=O)c1ccccc1-2)CCCn1c2c(c3ccccc3c1=O)C(=O)c1ccccc1-2   SF-268 CNS       false (0)

Ask: Can you look up the reported call for C(#Cc1ccccc1C#Cc1cccs1)c1cccs1 for me?
Reply: false (0)

Ask: Please state the recorded outcome for this compound: COC(=O)c1nc(-c2ccccc2)oc1S(=O)(=O)Cc1ccccc1
Reply: false (0)

Ask: Hey, what did the test say about CC(C)N(Cc1ccccc1)c1c(S)ssc1=S ?
Reply: false (0)

Reference source for all entries: PubChem BioAssay (NCI)
